# Binding Activity on ET Receptor (R. act.) ETA listing for each entry below
Molecular target: endothelin receptor A (ETA) (Sus scrofa, UniProt Q29010)
Construct: A membrane fraction prepared from the porcine heart; from tissue; host or cells: porcine heart membrane fraction
Sequence (Q29010 21-427): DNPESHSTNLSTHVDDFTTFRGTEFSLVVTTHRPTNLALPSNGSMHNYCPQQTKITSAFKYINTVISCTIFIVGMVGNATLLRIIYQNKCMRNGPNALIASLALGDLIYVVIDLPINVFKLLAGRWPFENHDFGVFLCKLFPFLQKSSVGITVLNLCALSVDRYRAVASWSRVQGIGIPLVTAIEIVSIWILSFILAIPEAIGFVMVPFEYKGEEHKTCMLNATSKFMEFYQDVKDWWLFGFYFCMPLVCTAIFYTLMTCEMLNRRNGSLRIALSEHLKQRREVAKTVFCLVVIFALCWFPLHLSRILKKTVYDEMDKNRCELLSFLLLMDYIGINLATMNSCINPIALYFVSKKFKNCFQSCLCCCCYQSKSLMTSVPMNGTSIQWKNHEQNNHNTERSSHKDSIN
Assay: Assay of Affinity for Receptor (1): Binding Activity on ETA Receptor
Set-up: key: relative binding activity; reference cyclic pentapeptide = 1.0
Settings: specific activity, binding activity of cyclo[-D-Glu-Ala-D-aIle-Leu-D-Trp-] taken as 1.0; porcine heart membrane fraction, 125I-labeled endothelin-1, 25° C., 1 hour
Non-standard residues stand in square brackets, D forms with d. Residues, ends and D or L forms follow the SMILES beside them. d2Thi = N[C@H](Cc1cccs1)C(=O)O; dPhg = N[C@@H](C(=O)O)c1ccccc1; Pip = O=C(O)[C@@H]1CCCCN1
Quantity name: Binding Activity on ET Receptor (R. act.) ETA

Compound | Numeric result
CC(C)C[C@@H]1NC(=O)[C@@H](Cc2ccccc2)NC(=O)[C@H](CC(=O)O)NC(=O)[C@H](Cc2c[nH]c3ccccc23)NC(=O)[C@@H](CC(=O)O)NC(=O)[C@@H](Cc2c[nH]c3ccccc23)NC1=O [Example 60] (cyclo(D[dF]L[dW][dD]W)) | 1
CC(C)C[C@@H]1NC(=O)[C@@H](CC(C)C)NC(=O)[C@H](CC(=O)O)NC(=O)[C@H](Cc2c[nH]c3ccccc23)NC(=O)[C@@H](CC(=O)O)NC(=O)[C@@H](Cc2c[nH]c3ccccc23)NC1=O [Example 8, cyclo[-D-Asp-Trp-Asp-D-Leu-Leu-D-Trp-]] (cyclo(D[dL]L[dW][dD]W)) | 76
CC(C)C[C@@H]1NC(=O)[C@@H](CC(C)C)NC(=O)[C@H](Cc2c[nH]c3ccccc23)NC(=O)[C@H](CC(=O)O)NC(=O)[C@@H](CC(=O)O)NC(=O)[C@@H](Cc2c[nH]c3ccccc23)NC1=O [Example 33] (cyclo(DW[dL]L[dW][dD])) | 2.9
CC(C)C[C@@H]1NC(=O)[C@@H](c2ccccc2)NC(=O)[C@H](CC(=O)O)NC(=O)[C@H](Cc2c[nH]c3ccccc23)NC(=O)[C@@H](CC(=O)O)NC(=O)[C@@H](Cc2c[nH]c3ccccc23)NC1=O [Example 45] (cyclo(D[dPhg]L[dW][dD]W)) | 87
CC(C)C[C@@H]1NC(=O)[C@@H](CC(C)C)NC(=O)[C@@H]2CCCN2C(=O)[C@H](Cc2c[nH]c3ccccc23)NC(=O)[C@@H](CC(=O)O)NC(=O)[C@@H](Cc2c[nH]c3ccccc23)NC1=O [Example 36] (cyclo(L[dW][dD]WP[dL])) | 17
CC(C)C[C@@H]1NC(=O)[C@@H](CC(C)C)NC(=O)[C@H](CC(=O)O)NC(=O)[C@H]2CCCN2C(=O)[C@@H](CC(=O)O)NC(=O)[C@@H](Cc2c[nH]c3ccccc23)NC1=O [Example 24] (cyclo(D[dL]L[dW][dD][dP])) | 1.7
CC(C)C[C@@H]1NC(=O)[C@@H](Cc2cccs2)NC(=O)[C@H](CC(=O)O)NC(=O)[C@H](Cc2c[nH]c3ccccc23)NC(=O)[C@@H](CC(=O)O)NC(=O)[C@@H](Cc2c[nH]c3ccccc23)NC1=O [Example 50] (cyclo(D[d2Thi]L[dW][dD]W)) | 4
CC(C)C[C@@H]1NC(=O)[C@@H](CC(C)C)NC(=O)[C@H](CC(=O)O)NC(=O)[C@@H]2CCCCN2C(=O)[C@@H](CC(=O)O)NC(=O)[C@@H](Cc2c[nH]c3ccccc23)NC1=O [Example 26] (cyclo(D[dL]L[dW][dD][Pip])) | 25

----------
Molecular target: endothelin receptor A (ETA) (Sus scrofa, UniProt Q29010)
Construct: A membrane fraction prepared from the porcine heart; from tissue; host or cells: porcine heart membrane fraction
Sequence (Q29010 21-427): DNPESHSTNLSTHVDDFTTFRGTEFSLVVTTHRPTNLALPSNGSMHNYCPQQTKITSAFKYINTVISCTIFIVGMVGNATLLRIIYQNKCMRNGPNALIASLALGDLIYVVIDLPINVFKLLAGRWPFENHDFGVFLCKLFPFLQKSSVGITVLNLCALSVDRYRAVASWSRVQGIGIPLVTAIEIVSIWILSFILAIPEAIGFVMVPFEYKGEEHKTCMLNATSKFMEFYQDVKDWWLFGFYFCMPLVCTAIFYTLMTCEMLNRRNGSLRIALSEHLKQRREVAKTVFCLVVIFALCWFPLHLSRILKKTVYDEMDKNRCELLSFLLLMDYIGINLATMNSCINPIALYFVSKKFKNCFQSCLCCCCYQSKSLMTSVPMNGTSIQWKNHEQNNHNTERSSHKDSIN
Assay: Assay of Affinity for Receptor (1): Binding Activity on ETA Receptor
Parameters: key: relative binding activity; reference cyclic pentapeptide = 1.0
Conditions: specific activity, binding activity of cyclo[-D-Glu-Ala-D-aIle-Leu-D-Trp-] taken as 1.0; porcine heart membrane fraction, 125I-labeled endothelin-1, 25° C., 1 hour
Non-standard residues stand in square brackets, D forms with d. Residues, ends and D or L forms follow the SMILES beside them. *: point of attachment. Orn = NCCC[C@H](N)C(=O)O; Aze = O=C(O)[C@@H]1CCN1; PhAc = O=C(Cc1ccccc1)*
# Binding Activity on ET Receptor (R. act.) ETA listing for each entry below
Quantity name: Binding Activity on ET Receptor (R. act.) ETA

Molecule | System | Result
CC(C)C[C@@H]1NC(=O)[C@@H](CC(C)C)NC(=O)[C@H](CC(=O)O)NC(=O)[C@H](CCCNC(=O)Cc2ccccc2)NC(=O)[C@@H](CC(=O)O)NC(=O)[C@@H](Cc2c[nH]c3ccccc23)NC1=O [Example 80] (cyclo(D[dL]L[dW][dD][Orn](PhAc))) | endothelin receptor A (ETA) (Sus scrofa, UniProt Q29010) | 260
CC(C)C[C@@H]1NC(=O)[C@H](CC(=O)O)NC(=O)[C@@H](CC(=O)O)NC(=O)[C@@H](Cc2c[nH]c3ccccc23)NC(=O)[C@H](CC(C)C)NC(=O)[C@@H](CC(C)C)NC1=O [Example 32] (cyclo(DL[dL]L[dW][dD])) | endothelin receptor A (ETA) (Sus scrofa, UniProt Q29010) | 4.0
CC(C)C[C@@H]1NC(=O)[C@@H](CC(C)C)NC(=O)[C@H](CC(=O)O)NC(=O)[C@H](C(C)C)NC(=O)[C@@H](CC(=O)O)NC(=O)[C@@H](Cc2c[nH]c3ccccc23)NC1=O [Example 17] (cyclo(D[dL]L[dW][dD]V)) | endothelin receptor A (ETA) (Sus scrofa, UniProt Q29010) | 3.7
CC(C)C[C@H]1NC(=O)[C@H](CC(=O)O)NC(=O)[C@H](C)NC(=O)[C@@H](CC(=O)O)NC(=O)[C@@H](Cc2c[nH]c3ccccc23)NC(=O)[C@H](Cc2c[nH]c3ccccc23)NC1=O [Example 58] (cyclo(AD[dL]W[dW][dD])) | endothelin receptor A (ETA) (Sus scrofa, UniProt Q29010) | 0.7
CC(C)C[C@@H]1NC(=O)[C@@H](CC(C)C)NC(=O)[C@@H]2CCCN2C(=O)[C@H](CC(=O)O)NC(=O)[C@@H](CC(=O)O)NC(=O)[C@@H](Cc2c[nH]c3ccccc23)NC1=O [Example 30] (cyclo(DP[dL]L[dW][dD])) | endothelin receptor A (ETA) (Sus scrofa, UniProt Q29010) | 4.4
CC(C)C[C@@H]1NC(=O)[C@@H](CC(C)C)NC(=O)[C@H](CO)NC(=O)[C@H](Cc2c[nH]c3ccccc23)NC(=O)[C@@H](CC(=O)O)NC(=O)[C@@H](Cc2c[nH]c3ccccc23)NC1=O [Example 37] (cyclo(L[dW][dD]WS[dL])) | endothelin receptor A (ETA) (Sus scrofa, UniProt Q29010) | 24
CC(C)C[C@@H]1NC(=O)[C@H](Cc2c[nH]c3ccccc23)NC(=O)[C@@H](CC(=O)O)NC(=O)[C@@H](Cc2c[nH]c3ccccc23)NC(=O)[C@H](CC(C)C)NC(=O)[C@@H](CC(C)C)NC1=O [Example 35] (cyclo(L[dL]L[dW][dD]W)) | endothelin receptor A (ETA) (Sus scrofa, UniProt Q29010) | 9.1
CC(C)C[C@@H]1NC(=O)[C@@H](CC(C)C)NC(=O)[C@H](CC(=O)O)NC(=O)[C@@H]2CCN2C(=O)[C@@H](CC(=O)O)NC(=O)[C@@H](Cc2c[nH]c3ccccc23)NC1=O [Example 25] (cyclo([Aze]D[dL]L[dW][dD])) | endothelin receptor A (ETA) (Sus scrofa, UniProt Q29010) | 30
